So I've got a bunch of compounds here, and I need their normalised viability values.
- Test system: CAL-51
- PROTOCOL NOTES: normalised viability (% of control), CellTiter-Blue; higher = more viable cells (about 100 = DMSO control)
- CONDITIONS USED: incubation time: 72 h
Your answer is read as %, so omit the unit and give the number.

Prompt line: Endpoint output: normalised viability of COc1cc(Nc2ncc(F)c(Nc3ccc4c(n3)NC(=O)C(C)(C)O4)n2)cc(OC)c1OC [R406] (10000 nM) . Value?
Response line: 97.8

Prompt line: For C[C@@H]1C=C2C(=O)O[C@@H]3CC[C@H](C1)[C@]23O [Galiellalactone] (50000 nM) then?
Response line: 43.1

Prompt line: For CCOc1cc2ncc(C#N)c(Nc3ccc(OCc4ccccn4)c(Cl)c3)c2cc1NC(=O)/C=C/CN(C)C [Neratinib] (1000 nM) then?
Response line: 92.5

Prompt line: For COC1=CC(c2cc3ccccc3[nH]2)=N/C1=C\c1[nH]c(C)cc1C [Obatoclax] (10000 nM) then?
Response line: 6.23

----------
- Test system: Hs578T
- PROTOCOL NOTES: normalised viability (% of control), CellTiter-Blue; higher = more viable cells (about 100 = DMSO control)
- CONDITIONS USED: 1000 nM; incubation time: 72 h
So I've got a bunch of compounds here, and I need their normalised viability values.
Your answer is read as %, so omit the unit and give the number.

Prompt line: Endpoint output: normalised viability of O=c1[nH]cc(F)c(=O)[nH]1 . Value?
Response line: 106

Prompt line: For c1ccc(C2CN3CCSC3=N2)cc1 (stereo unspecified) then?
Response line: 95.5

Prompt line: For C#Cc1cccc(Nc2ncnc3cc(OC)c(OCCCCCCC(=O)NO)cc23)c1 then?
Response line: 38.2

Prompt line: For C[C@@]1(C(=O)Nc2ccc(F)nc2)CCCN1c1nc(Nc2cc(C3CC3)n[nH]2)c2cccn2n1 then?
Response line: 75.8

Prompt line: For COc1ncc(-c2ccc3nccc(-c4ccnnc4)c3c2)cc1NS(=O)(=O)c1ccc(F)cc1F then?
Response line: 9.34

Prompt line: For COC1=C2C[C@@H](C)C[C@H](OC)[C@H](O)[C@@H](C)/C=C(\C)[C@H](OC(N)=O)[C@@H](OC)/C=C\C=C(/C)C(=O)NC(=CC1=O)C2=O then?
Response line: 31.1

----------
So I've got a bunch of compounds here, and I need their normalised viability values.
- Tested on: CAL-51
- PROTOCOL NOTES: normalised viability (% of control), CellTiter-Blue; higher = more viable cells (about 100 = DMSO control)
- CONDITIONS USED: incubation time: 72 h
Your answer is read as %, so omit the unit and give the number.

Prompt line: Checklist item: normalised viability tested on CAL-51, entry COC(=O)C[C@](O)(CCCC(C)(C)O)C(=O)O[C@@H]1C(OC)=C[C@]23CCCN2CCc2cc4c(cc2[C@H]13)OCO4 [Omacetaxine mepesuccinate] (10000 nM) , value?
Response line: 3.97

Prompt line: For COc1ncc(-c2ccc3nccc(-c4ccnnc4)c3c2)cc1NS(=O)(=O)c1ccc(F)cc1F (1000 nM) then?
Response line: 3.63

Prompt line: For O=C(c1ccc(OCCN2CCCCC2)cc1)c1c(-c2ccc(O)cc2)sc2cc(O)ccc12 [Raloxifene] (10000 nM) then?
Response line: 105

Prompt line: For COC1=C2C[C@@H](C)C[C@H](OC)[C@H](O)[C@@H](C)/C=C(\C)[C@H](OC(N)=O)[C@@H](OC)/C=C\C=C(/C)C(=O)NC(=CC1=O)C2=O [Geldanamycin] (10000 nM) then?
Response line: 2.17

----------
- Tested on: HDQ-P1
- PROTOCOL NOTES: normalised response (% of control), CellTiter-Glo; higher = more viable cells (100 = DMSO, 0 = benzethonium chloride kill control)
- CONDITIONS USED: incubation time: 72 h
RECORDED METRIC: normalised response (%)
Your answer is read as %, so omit the unit and give the number.

Prompt line: Endpoint output: normalised response of O=C(c1ccc(OCCN2CCCCC2)cc1)c1c(-c2ccc(O)cc2)sc2cc(O)ccc12 [Raloxifene] (1000 nM) . Value?
Response line: 100

Prompt line: For Cn1cnc2c(F)c(Nc3ccc(Br)cc3F)c(C(=O)NOCCO)cc21 [MEK-162] (1 nM) then?
Response line: 93.2

Prompt line: For COC1=C2C[C@@H](C)C[C@H](OC)[C@H](O)[C@@H](C)/C=C(\C)[C@H](OC(N)=O)[C@@H](OC)/C=C\C=C(/C)C(=O)NC(=CC1=O)C2=O [Geldanamycin] (1 nM) then?
Response line: 101

Prompt line: For O=c1[nH]c(=O)n([C@H]2C[C@H](O)[C@@H](CO)O2)cc1F [Floxuridine] (10 nM) then?
Response line: 90.2

Prompt line: For COC1=CC(c2cc3ccccc3[nH]2)=N/C1=C\c1[nH]c(C)cc1C [Obatoclax] (1 nM) then?
Response line: 92.9

Prompt line: For COc1cccc2c1C(=O)c1c(O)c3c(c(O)c1C2=O)C[C@@](O)(C(C)=O)C[C@@H]3O[C@H]1C[C@H](N)[C@H](O)[C@H](C)O1 [Daunorubicin] (100 nM) then?
Response line: 91.8

Prompt line: For CS(=O)(=O)OCCCCOS(C)(=O)=O [Busulfan] (10 nM) then?
Response line: 95.6

Prompt line: For COc1ccc(C2=N[C@@H](c3ccc(Cl)cc3)[C@@H](c3ccc(Cl)cc3)N2C(=O)N2CCNC(=O)C2)c(OC(C)C)c1 [Nutlin-3] (1 nM) then?
Response line: 105

Prompt line: For O=c1[nH]cc(F)c(=O)[nH]1 [Fluorouracil] (1 nM) then?
Response line: 105

Prompt line: For COC1=CC(c2cc3ccccc3[nH]2)=N/C1=C\c1[nH]c(C)cc1C [Obatoclax] (1000 nM) then?
Response line: 97

Prompt line: For CCS(=O)(=O)c1cccc(-c2cc(C(=O)NC3CCN(C)CC3)c(C)c3[nH]c4ncc(C)cc4c23)c1 [TAK-901] (100 nM) then?
Response line: 86.2

Prompt line: For CC(C)(C)c1cc(NC(=O)Nc2ccc(-c3cn4c(n3)sc3cc(OCCN5CCOCC5)ccc34)cc2)no1 [Quizartinib] (1 nM) then?
Response line: 98.5

Prompt line: For CCCC(CCC)C(=O)O [Valproic acid] (100 nM) then?
Response line: 101

Prompt line: For CN(c1ccccc1CNc1nc(Nc2ccc3c(c2)CC(=O)N3)ncc1C(F)(F)F)S(C)(=O)=O (10 nM) then?
Response line: 101

Prompt line: For Cc1cc(C(C)Nc2ccccc2)c2nc(N3CCOCC3)cc(=O)n2c1 (stereo not given) [TGX-221] (1 nM) then?
Response line: 96.2

Prompt line: For CC(C)(C)c1cc(NC(=O)Nc2ccc(-c3cn4c(n3)sc3cc(OCCN5CCOCC5)ccc34)cc2)no1 [Quizartinib] (0.1 nM) then?
Response line: 99.5

Prompt line: For Cn1c(=O)c(F)c(Nc2ccc(I)cc2F)c2c(=O)n(C[C@@H](O)CO)cnc21 [TAK-733] (0.1 nM) then?
Response line: 97.1

Prompt line: For O=c1[nH]c(=O)n([C@H]2C[C@H](O)[C@@H](CO)O2)cc1F [Floxuridine] (1 nM) then?
Response line: 102

Prompt line: For CC(C)C[C@H](NC(=O)[C@H](Cc1ccccc1)NC(=O)c1cnccn1)B(O)O [Bortezomib] (0.1 nM) then?
Response line: 93.6

Prompt line: For CS(=O)(=O)OCCCCOS(C)(=O)=O [Busulfan] (10000 nM) then?
Response line: 98.3

----------
- Tested on: MCF-10A
- PROTOCOL NOTES: normalised response (% of control), CellTox Green; higher = less cell death (100 = DMSO, 0 = benzethonium chloride kill control)
- CONDITIONS USED: incubation time: 72 h
Respond with Condition met for normalised response values of 90% and above, Condition not met for values below.

Prompt line: Entry C[C@@]1(C(=O)Nc2ccc(F)nc2)CCCN1c1nc(Nc2cc(C3CC3)n[nH]2)c2cccn2n1 (10000 nM) : is its normalised response no less than 90%?
Response line: Condition not met

Prompt line: For CN(c1ccccc1CNc1nc(Nc2ccc3c(c2)CC(=O)N3)ncc1C(F)(F)F)S(C)(=O)=O (10000 nM) then?
Response line: Condition not met

Prompt line: For FC(F)c1nc2ccccc2n1-c1nc(N2CCOCC2)nc(N2CCOCC2)n1 [ZSTK474] (1000 nM) then?
Response line: Condition not met

Prompt line: For CN1CCN(c2ccc3nc(-c4c(N)c5c(F)cccc5[nH]c4=O)[nH]c3c2)CC1 [Dovitinib] (10000 nM) then?
Response line: Condition met

Prompt line: For CCS(=O)(=O)c1cccc(-c2cc(C(=O)NC3CCN(C)CC3)c(C)c3[nH]c4ncc(C)cc4c23)c1 [TAK-901] (100 nM) then?
Response line: Condition met

Prompt line: For O=C(c1ccc(OCCN2CCCCC2)cc1)c1c(-c2ccc(O)cc2)sc2cc(O)ccc12 [Raloxifene] (1000 nM) then?
Response line: Condition met

Prompt line: For COC1=C2C[C@@H](C)C[C@H](OC)[C@H](O)[C@@H](C)/C=C(\C)[C@H](OC(N)=O)[C@@H](OC)/C=C\C=C(/C)C(=O)NC(=CC1=O)C2=O [Geldanamycin] (1000 nM) then?
Response line: Condition met

Prompt line: For CN1CCN(c2ccc3nc(-c4c(N)c5c(F)cccc5[nH]c4=O)[nH]c3c2)CC1 [Dovitinib] (100 nM) then?
Response line: Condition met

Prompt line: For COC1=CC(c2cc3ccccc3[nH]2)=N/C1=C\c1[nH]c(C)cc1C [Obatoclax] (100 nM) then?
Response line: Condition met

Prompt line: For COc1cccc2c1C(=O)c1c(O)c3c(c(O)c1C2=O)C[C@@](O)(C(C)=O)C[C@@H]3O[C@H]1C[C@H](N)[C@H](O)[C@H](C)O1 [Daunorubicin] (10 nM) then?
Response line: Condition met

Prompt line: For CC(C)(C)c1cc(NC(=O)Nc2ccc(-c3cn4c(n3)sc3cc(OCCN5CCOCC5)ccc34)cc2)no1 [Quizartinib] (100 nM) then?
Response line: Condition not met

Prompt line: For COc1ccc(C2=N[C@@H](c3ccc(Cl)cc3)[C@@H](c3ccc(Cl)cc3)N2C(=O)N2CCNC(=O)C2)c(OC(C)C)c1 [Nutlin-3] (100 nM) then?
Response line: Condition met

Prompt line: For Nc1nccc(-c2c(-c3ccc(F)cc3)ncn2C2CCCCC2)n1 (100 nM) then?
Response line: Condition met

Prompt line: For C[C@@H]1C=C2C(=O)O[C@@H]3CC[C@H](C1)[C@]23O [Galiellalactone] (5000 nM) then?
Response line: Condition not met
